- Tested on: TA 98 and TA104 strains containing pMOL1067 or pMOL1068
- appliedConditions: TA 98 and TA104 strains containing pMOL1067 or pMOL1068
propertyMeasured: OUTCOME (genotoxicity, final outcome)

Known OUTCOME (genotoxicity, final outcome) results, listed for orientation:
| compound | OUTCOME (genotoxicity, final outcome) |
| --- | --- |
| [N-]=[N+]=[N-] [Sodiumazide] | pos |
| CO[C@@H]1[C@@H](OC(N)=O)[C@@H](O)[C@H](Oc2ccc3c(O)c(NC(=O)c4ccc(O)c(CC=C(C)C)c4)c(=O)oc3c2C)OC1(C)C | pos |
| NN [Hydrazine] | pos |
| COS(C)(=O)=O [MMS, Methylmethanesulphonate] | pos |
| O=C(N/N=C/c1ccc([N+](=O)[O-])o1)c1ccc(O)cc1 [Nifuroxazide] | pos |

Fill blank: measured OUTCOME (genotoxicity, final outcome) of the compound Cl[C@H]1[C@H](Cl)[C@@H](Cl)[C@@H](Cl)[C@H](Cl)[C@H]1Cl is ____.
neg

Any idea what OUTCOME (genotoxicity, final outcome) was measured for CN(Cc1cnc2nc(N)nc(N)c2n1)c1ccc(C(=O)N[C@@H](CCC(=O)O)C(=O)O)cc1 [Methotrexate] ?
pos

Value lookup for OUTCOME (genotoxicity, final outcome); key = CCCCCCCCCCCCOS(=O)(=O)[O-].[Na+] [Sodium Dodecyl Sulphate]
neg

Fill in the blank: the reported OUTCOME (genotoxicity, final outcome) of c1ccc2c(c1)ccc1ccccc12 is ____.
pos
